experimentalSystem: Stat5a/b (Homo sapiens, UniProt P42229+P51692)
Sequence (P42229 1-794): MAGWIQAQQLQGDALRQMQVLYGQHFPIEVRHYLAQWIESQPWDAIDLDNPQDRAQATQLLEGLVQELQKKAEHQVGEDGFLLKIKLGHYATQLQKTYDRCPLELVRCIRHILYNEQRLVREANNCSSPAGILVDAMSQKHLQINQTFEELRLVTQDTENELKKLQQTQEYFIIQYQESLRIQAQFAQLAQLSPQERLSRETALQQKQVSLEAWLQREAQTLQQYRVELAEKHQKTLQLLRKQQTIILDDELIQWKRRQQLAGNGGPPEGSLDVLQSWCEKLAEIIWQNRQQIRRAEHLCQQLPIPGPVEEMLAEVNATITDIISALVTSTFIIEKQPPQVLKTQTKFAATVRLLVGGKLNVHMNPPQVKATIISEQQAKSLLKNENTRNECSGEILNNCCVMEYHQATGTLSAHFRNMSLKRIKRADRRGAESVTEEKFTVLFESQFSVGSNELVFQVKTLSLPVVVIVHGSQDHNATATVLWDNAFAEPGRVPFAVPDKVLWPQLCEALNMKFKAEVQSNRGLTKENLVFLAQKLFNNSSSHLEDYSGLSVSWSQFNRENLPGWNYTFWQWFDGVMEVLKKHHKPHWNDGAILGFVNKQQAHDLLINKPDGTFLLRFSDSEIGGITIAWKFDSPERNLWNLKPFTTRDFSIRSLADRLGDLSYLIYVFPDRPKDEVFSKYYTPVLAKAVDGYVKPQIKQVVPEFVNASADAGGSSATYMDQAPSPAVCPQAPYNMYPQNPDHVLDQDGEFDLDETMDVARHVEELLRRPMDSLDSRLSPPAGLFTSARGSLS
Sequence (P51692 1-787): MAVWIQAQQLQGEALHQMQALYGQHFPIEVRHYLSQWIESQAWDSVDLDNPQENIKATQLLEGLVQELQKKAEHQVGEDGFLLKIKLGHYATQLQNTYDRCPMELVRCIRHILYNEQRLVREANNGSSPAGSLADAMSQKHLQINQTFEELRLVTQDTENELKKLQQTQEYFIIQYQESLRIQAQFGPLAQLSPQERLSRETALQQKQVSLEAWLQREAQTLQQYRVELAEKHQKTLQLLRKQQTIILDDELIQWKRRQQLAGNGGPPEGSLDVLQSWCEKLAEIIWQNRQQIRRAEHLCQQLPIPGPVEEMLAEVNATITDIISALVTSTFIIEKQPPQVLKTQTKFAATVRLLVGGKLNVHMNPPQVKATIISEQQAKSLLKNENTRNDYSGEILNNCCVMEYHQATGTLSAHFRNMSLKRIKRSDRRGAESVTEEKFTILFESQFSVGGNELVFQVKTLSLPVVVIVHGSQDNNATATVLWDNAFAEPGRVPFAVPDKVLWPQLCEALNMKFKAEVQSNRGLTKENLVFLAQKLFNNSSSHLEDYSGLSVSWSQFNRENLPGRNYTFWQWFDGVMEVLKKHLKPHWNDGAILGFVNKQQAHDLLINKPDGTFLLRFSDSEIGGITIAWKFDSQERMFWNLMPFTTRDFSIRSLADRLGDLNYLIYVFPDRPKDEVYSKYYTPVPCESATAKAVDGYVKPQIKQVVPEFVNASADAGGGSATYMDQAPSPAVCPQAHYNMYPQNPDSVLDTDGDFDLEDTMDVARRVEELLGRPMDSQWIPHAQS
procedureSummary: Cell-based immunoassay for tyrosine-phosphorylated Stat5a/b in T47D cells
particulars: read-out: IC50, phosphorylation of Stat5a/b, 2 h, then hPrl
experimentalReadout: IC50 (µM)
Answer format: numeric, µM implied, no suffix.

Ask: Give a short answer stating reported IC50 for O=P(O)(O)OC[C@H]1O[C@@H](n2cnc3c(NCc4ccccc4)ncnc32)[C@H](O)[C@@H]1O [IST5-002, N6-benzyladenosine-5-monophosphate] .
Reply: 24.8

---

experimentalSystem: Stat5a (Homo sapiens, UniProt P42229)
Sequence (P42229 1-794): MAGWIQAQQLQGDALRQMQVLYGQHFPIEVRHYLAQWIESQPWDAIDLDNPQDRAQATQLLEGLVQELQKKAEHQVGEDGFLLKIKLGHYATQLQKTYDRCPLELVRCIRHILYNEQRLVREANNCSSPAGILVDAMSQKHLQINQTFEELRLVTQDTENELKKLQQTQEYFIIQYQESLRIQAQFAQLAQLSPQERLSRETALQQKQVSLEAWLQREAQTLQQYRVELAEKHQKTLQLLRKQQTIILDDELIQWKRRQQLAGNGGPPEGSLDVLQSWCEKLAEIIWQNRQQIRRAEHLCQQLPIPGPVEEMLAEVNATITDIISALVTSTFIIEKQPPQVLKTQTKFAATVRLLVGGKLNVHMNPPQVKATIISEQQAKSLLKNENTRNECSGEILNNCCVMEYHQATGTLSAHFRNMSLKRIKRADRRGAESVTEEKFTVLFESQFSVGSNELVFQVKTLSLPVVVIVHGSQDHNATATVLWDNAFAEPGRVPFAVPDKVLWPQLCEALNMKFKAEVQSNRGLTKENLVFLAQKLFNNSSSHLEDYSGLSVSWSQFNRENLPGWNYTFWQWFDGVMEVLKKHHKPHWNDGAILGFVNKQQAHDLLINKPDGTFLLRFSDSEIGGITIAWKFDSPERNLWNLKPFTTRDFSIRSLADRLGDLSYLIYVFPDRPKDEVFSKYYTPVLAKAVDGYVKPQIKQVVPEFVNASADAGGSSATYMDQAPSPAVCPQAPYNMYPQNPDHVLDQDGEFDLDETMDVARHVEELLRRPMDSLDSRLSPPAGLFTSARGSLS
procedureSummary: Stat5a luciferase reporter gene assay
Type: cell-based
particulars: read-out: IC50, transcriptional activity of Stat5a; PC-3 cells, β-casein-luciferase, hPrl 10 nM 16 h
experimentalReadout: pIC50
Worth noting: pIC50 values are minus log10 of concentrations stated in mol/L.

Ask: Give measured pIC50 for O=P(O)(O)OC[C@H]1O[C@@H](n2cnc3c(NCc4ccccc4)ncnc32)[C@H](O)[C@@H]1O [IST5-002, N6-benzyladenosine-5-monophosphate] (Stat5a (Homo sapiens, UniProt P42229)).
Reply: 5.82

---

experimentalSystem: Stat5a/b (Mus musculus, UniProt P42230+P42232)
Sequence (P42230 whole entry): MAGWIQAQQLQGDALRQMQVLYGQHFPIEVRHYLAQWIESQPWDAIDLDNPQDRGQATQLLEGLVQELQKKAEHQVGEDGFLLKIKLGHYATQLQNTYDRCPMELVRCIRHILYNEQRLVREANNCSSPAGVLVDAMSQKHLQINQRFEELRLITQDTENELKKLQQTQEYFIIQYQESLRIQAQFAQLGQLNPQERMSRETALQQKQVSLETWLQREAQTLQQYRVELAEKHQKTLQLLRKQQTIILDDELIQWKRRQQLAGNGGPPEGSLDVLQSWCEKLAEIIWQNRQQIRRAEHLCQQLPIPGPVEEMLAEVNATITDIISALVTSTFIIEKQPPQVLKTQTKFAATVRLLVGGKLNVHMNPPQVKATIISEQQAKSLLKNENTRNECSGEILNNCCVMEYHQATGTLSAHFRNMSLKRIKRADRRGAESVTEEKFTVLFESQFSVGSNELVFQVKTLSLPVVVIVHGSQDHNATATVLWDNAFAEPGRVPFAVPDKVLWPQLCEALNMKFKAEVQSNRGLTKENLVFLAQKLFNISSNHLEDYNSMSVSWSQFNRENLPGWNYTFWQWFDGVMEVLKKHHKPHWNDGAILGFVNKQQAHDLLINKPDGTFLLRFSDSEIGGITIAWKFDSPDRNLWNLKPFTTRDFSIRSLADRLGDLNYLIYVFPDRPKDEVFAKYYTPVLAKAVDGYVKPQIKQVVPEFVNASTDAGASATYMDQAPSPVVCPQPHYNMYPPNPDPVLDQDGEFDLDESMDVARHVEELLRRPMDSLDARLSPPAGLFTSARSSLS
Sequence (P42232 whole entry): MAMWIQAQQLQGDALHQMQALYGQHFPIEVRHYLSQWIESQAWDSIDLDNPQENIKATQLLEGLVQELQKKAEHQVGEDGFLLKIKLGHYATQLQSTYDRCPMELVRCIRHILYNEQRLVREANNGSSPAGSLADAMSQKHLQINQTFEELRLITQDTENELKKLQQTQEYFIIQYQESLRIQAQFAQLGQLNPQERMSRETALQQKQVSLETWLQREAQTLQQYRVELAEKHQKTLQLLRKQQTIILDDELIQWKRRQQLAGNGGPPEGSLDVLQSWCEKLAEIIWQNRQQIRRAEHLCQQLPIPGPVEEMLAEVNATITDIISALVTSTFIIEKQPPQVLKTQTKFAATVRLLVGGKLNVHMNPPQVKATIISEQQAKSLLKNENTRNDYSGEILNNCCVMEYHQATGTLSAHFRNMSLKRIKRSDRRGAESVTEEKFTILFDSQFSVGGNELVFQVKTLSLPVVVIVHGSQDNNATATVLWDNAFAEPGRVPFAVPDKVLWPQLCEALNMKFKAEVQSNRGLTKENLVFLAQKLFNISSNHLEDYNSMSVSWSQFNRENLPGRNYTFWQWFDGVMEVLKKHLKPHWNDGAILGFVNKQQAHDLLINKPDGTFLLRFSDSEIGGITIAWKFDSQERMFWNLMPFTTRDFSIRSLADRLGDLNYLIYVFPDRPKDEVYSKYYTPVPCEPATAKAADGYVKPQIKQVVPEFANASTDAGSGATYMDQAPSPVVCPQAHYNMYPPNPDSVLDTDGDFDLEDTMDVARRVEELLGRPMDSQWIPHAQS
particulars: read-out: IC50, phosphorylation of Stat5a/b; HC-11 cells, 2 h, then hPrl 30 min
experimentalReadout: IC50 (µM)
Reply numerically in µM, unit not repeated.

Ask: Look up IC50 of O=P(O)(O)OC[C@H]1O[C@@H](n2cnc3c(NCc4ccccc4)ncnc32)[C@H](O)[C@@H]1O [IST5-002, N6-benzyladenosine-5-monophosphate] and report it.
Reply: 12
